Target: T1, human TfR extracellular domain with N-terminal His tag (human, UniProt P02786 89-760)
T1 construct: Biotinylated in some assays; also called huTfR; HuTfR
T1 sequence (P02786 89-760 G142S): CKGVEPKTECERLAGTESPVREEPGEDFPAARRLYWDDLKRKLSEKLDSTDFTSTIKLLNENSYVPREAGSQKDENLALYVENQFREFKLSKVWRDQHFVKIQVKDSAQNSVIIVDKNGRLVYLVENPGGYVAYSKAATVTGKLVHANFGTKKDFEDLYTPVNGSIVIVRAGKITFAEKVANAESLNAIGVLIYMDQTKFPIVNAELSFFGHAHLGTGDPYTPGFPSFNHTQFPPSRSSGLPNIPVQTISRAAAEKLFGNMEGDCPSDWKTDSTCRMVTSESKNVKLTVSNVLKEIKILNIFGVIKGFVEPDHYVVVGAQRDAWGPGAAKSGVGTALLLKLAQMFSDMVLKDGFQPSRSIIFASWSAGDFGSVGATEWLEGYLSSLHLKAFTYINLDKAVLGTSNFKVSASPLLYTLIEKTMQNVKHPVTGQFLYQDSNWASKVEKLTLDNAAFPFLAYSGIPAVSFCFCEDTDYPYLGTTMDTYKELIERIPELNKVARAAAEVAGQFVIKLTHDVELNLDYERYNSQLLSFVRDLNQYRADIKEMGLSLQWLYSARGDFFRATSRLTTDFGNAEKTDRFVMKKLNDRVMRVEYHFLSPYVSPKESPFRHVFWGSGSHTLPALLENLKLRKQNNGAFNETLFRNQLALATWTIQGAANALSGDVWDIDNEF
Experiment: SPR, IgG;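 note: His-tagged TfR captured via immobilized anti-His antibody on a CM5 chip, antibody injected in 3-fold dilution series by single cycle kinetics, 1:1 Langmuir or steady-state fit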
Experimental readout: Kd (nM)
Number only, in nM; omit the unit.

Examples with answers:
>  <Binder>
hu7A4.v10 (antibody, V domains shown, IgG) VH: EVQLVQSGAEVKKPGASVKVSCKGSGYTFTDYAMHWVRQAPGQGLEWMGGISTYFGRTNYNQKFKGRVTMTRDTSISTAYMELSRLRSDDTAVYYCARGLSGNYVMDYWGQGTTVTVSS VL: DIVMTQSPDSLAVSLGERATINCRASESVDSYGNSFMHWYQQKPGQPPKLLIYRASNLESGVPDRFSGSGSRTDFTLTISSLQAEDVAVYYCQQSNEGPPTFGQGTKLEIK

>  <Kd / nM>
0.143

$$$$
>  <Binder>
hu16F6.v4 (antibody, V domains shown, IgG; HC 71 R, 78 L; also called 16F6.v4 IgG) VH: EVQLVESGPGLVKPSETLSLTCTVSGNSITSEYAWNWIRQPPGKGLEWIGYISYSGTTSYNPSLKSRVTISRDTSKNQLSLKLSSVTAADTAVYYCARYGYGNPATRYFDVWGQGTLVTVSS VL: DIQMTQSPSSLSASVGDRVTITCRASKSISKYLAWYQQKPGKTNKLLLYSGSTLQSGVPSRFSGSGSGTDYTLTISSLQPEDFATYYCQQHNEYPWTFGQGTKVEIK

>  <Kd / nM>
0.884

$$$$

Query binder follows.
// fetch Kd given entry hu7A4.v13 (antibody, V domains shown, IgG) VH: EVQLVQSGAEVKKPGASVKVSCKGSGYTFTDYAMHWVRQAPGQGLEWMGGISTYFGRTNYNQKFKGRVTMTVDTSISTAYMELSRLRSDDTAVYYCARGLSGNYVMDYWGQGTTVTVSS VL: DIVMTQSPDSLAVSLGERATINCRASESVDSYGNSFMHWYQQKPGQPPKLLIYRASNLESGVPDRFSGSGSGTDFTLTISSLQAEDVAVYYCQQSNEAPPTFGQGTKLEIK
1.36

Reference for the values: patent US20180057604A1
